Biological target: human TLR7 (Homo sapiens, UniProt Q9NYK1)
Sequence (Q9NYK1 27-1049): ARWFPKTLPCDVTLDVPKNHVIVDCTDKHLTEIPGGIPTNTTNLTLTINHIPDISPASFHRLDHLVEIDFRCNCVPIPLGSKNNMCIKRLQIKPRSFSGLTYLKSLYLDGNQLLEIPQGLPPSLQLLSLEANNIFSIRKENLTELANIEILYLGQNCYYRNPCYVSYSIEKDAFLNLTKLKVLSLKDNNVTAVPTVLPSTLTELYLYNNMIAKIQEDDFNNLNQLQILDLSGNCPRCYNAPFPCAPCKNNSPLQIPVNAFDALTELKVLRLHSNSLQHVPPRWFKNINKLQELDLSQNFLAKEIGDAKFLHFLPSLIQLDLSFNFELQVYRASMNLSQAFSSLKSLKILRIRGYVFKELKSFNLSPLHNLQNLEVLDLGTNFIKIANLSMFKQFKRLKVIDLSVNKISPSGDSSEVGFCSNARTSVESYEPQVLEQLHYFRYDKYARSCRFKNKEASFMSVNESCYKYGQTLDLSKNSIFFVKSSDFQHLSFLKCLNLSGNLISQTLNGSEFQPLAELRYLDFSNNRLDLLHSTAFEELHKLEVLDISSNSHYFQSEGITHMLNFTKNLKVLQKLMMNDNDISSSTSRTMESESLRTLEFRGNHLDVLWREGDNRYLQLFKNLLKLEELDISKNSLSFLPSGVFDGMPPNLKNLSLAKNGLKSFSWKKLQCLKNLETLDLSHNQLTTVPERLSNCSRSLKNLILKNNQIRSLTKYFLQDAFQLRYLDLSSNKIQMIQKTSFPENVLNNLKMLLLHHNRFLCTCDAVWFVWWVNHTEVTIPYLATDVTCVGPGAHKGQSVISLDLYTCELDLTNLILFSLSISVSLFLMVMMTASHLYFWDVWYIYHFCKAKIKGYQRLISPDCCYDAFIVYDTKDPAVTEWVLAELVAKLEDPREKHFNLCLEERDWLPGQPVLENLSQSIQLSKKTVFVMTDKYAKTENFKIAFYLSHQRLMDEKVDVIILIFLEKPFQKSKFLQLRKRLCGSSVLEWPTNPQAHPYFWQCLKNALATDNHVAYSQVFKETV
Assay: TLR7 inhibition reporter assay (HEK-Blue cells, SEAP reporter, gardiquimod stimulation)
Conditions: HEK-Blue cells overexpressing human TLR7, SEAP reporter, gardiquimod 7.5 μM
pIC50: −log10 of the molar value.
Items are presented alongside their recorded pIC50.

- compound: "CC(C)c1c(-c2nc3cnccn3n2)[nH]c2ccc(C3CCNCC3)cc12 [Example 195]"
  pIC50: "4.30 to 6.00"
- compound: "CC(C)c1c(-c2c[nH]c3cnccc23)[nH]c2ccc(C3CCNCC3)cc12 [Example 15]"
  pIC50: "6.00 to 7.00"
- compound: "CC(C)c1c(-c2ccnc3[nH]ncc23)[nH]c2ccc(C3CCN(C(=O)CN4CC[C@@H](N(C)C)C4)CC3)cc12 [Example 582]"
  pIC50: "> 7.00"
- compound: "CC(C)c1c(-c2ccc3nccn3c2)[nH]c2ccc(C3CCN(C(=O)[C@H]4CCCNC4)CC3)cc12 [Example 640]"
  pIC50: "> 7.00"
- compound: "CC(C)c1c(-c2ccc3ncnn3n2)[nH]c2ccc(C3CCN(CC(=O)N(C)C)CC3)cc12 [Example 278]"
  pIC50: "> 7.00"
- compound: "Cc1nc2cc(-c3[nH]c4ccc(C5CCN(C(=O)CN(C)C)CC5)cc4c3C(C)C)ccn2n1 [Example 538]"
  pIC50: "> 7.00"
- compound: "CCOC(=O)N1CCC(N2CCC(c3ccc4[nH]c(-c5ccnc6[nH]ncc56)c(C(C)C)c4c3)CC2)C(C)C1 (stereo not shown) [Example 835]"
  pIC50: "6.00 to 7.00"
- compound: "CC(C)c1c(-c2ccc3ncsc3n2)[nH]c2ccc(C3CCNCC3)cc12 [Example 209]"
  pIC50: "> 7.00"
- compound: "Cc1c(-c2[nH]c3ccc(C4CCN(CC(=O)N(C)C)CC4)cc3c2C(C)C)cn2nnnc2c1C [Example 309]"
  pIC50: "> 7.00"
- compound: "Cc1cc(-c2[nH]c3ccc(C4CCNCC4)cc3c2C(C)C)cc2cccnc12 [Example 141]"
  pIC50: "> 7.00"
- compound: "CC(C)c1c(-c2ccc3ncnn3n2)[nH]c2ccc(C3CCN(C(=O)CN(C)C)CC3)cc12 [Example 452]"
  pIC50: "> 7.00"
- compound: "CC(C)c1c(-c2cn(C)c3ncccc23)[nH]c2ccc(C3CCN(CC#N)CC3)cc12 [Example 958]"
  pIC50: "> 7.00"
- compound: "CCc1c(-c2cnc3cc(C)cnn23)[nH]c2ccc(C3CCNCC3)cc12 [Example 108]"
  pIC50: "< 4.30"
- compound: "Cc1c(-c2ncc3[nH]ccc3n2)[nH]c2ccc(C3CCN(C4CCN(C(C)C)CC4)CC3)cc12 [Example 808]"
  pIC50: "4.30 to 6.00"
- compound: "CC(C)c1c(-c2ccnc3[nH]ncc23)[nH]c2ccc(C3CCN(C(=O)CCN4CCCCC4)CC3)cc12 [Example 641]"
  pIC50: "> 7.00"
- compound: "CNC(=O)CN1CCC(c2ccc3[nH]c(-c4cc(F)c5nccn5c4)c(CC(F)F)c3c2)CC1 [Example 411]"
  pIC50: "> 7.00"
